Can you tell me residual activity for the items I'm about to list?
# TEST_SYSTEM: CSK (human) (UniProt P41240)
# Sequence (P41240 whole entry, looked up): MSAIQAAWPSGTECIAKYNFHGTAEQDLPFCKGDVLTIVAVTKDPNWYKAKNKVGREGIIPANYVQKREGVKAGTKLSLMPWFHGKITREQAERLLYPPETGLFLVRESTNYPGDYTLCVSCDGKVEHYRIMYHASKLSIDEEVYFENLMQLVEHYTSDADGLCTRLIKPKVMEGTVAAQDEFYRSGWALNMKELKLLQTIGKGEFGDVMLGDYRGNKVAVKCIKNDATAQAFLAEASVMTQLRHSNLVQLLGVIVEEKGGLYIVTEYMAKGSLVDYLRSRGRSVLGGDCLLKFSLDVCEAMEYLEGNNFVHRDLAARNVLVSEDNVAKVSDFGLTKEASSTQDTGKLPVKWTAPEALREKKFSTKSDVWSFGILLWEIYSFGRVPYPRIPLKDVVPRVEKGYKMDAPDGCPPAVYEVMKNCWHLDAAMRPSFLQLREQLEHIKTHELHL
# EXPERIMENT_SUMMARY: radiometric filter-binding kinase assay, Kinase HotSpot
# CONDITIONS: compound 0.5 µM; ATP 10 µM

**Query** // fetch CSK (human) (UniProt P41240) residual activity for `CCN(CC)CCNC(=O)c1c(C)[nH]c(/C=C2\C(=O)Nc3ccc(Cl)cc32)c1C`
**Result** 86.3%

**Query** // fetch CSK (human) (UniProt P41240) residual activity for `Cc1[nH]c(/C=C2\C(=O)Nc3ccc(S(=O)(=O)N(C)c4cccc(Cl)c4)cc32)c(C)c1C(=O)N1CCN(C)CC1`
**Result** 78.2%

**Query** // fetch CSK (human) (UniProt P41240) residual activity for `CCN(CC)CCNC(=O)c1c(C)[nH]c(/C=C2\C(=O)Nc3ccc(F)cc32)c1C`
**Result** 90.2%

**Query** // fetch CSK (human) (UniProt P41240) residual activity for `CC(=O)c1ccc(N2CCOCC2)cc1O`
**Result** 99.1%
